All figures here come from patent US12351565B2.

Assay: In vivo pharmacokinetic experiment in rats
Details: male, rat, po; SD rats, 20 mg/kg p.o., plasma
readout: Cmax

Ask | Using the record for Cl.N[C@]1(c2ccc(C(F)(F)F)cc2)CCC[C@H](O)C1=O [Compound 51] , report its Cmax.
Reply | 9350 ng/mL

---

Experiment: In vivo pharmacokinetic experiment in rats
Conditions: male, rat, po; SD rats, 10 mg/kg p.o., plasma
readout: half-life (h)
Give the value, in units of h, as a plain number.

Ask | Quick check: half-life of Cl.N[C@@]1(c2ccc(C(F)(F)F)cc2)CCC[C@@H](O)C1=O ?
Reply | 5.73
